The compounds listed here are annotated with their logP.

Please review the following examples before continuing.
compound	value.kind	reported.measurement
CC(C)C(C)C	logP	3.42
NC(=O)Nc1nc(-c2ccccc2)no1	logP	1.76
CC(C)[C@H](NC(=O)[C@H](Cc1ccccc1)NC(=O)OC(C)(C)C)C(=O)O	logP	2.88
O=C1C=CCO1	logP	-0.6
CCOc1ccc(C(C)(C)COCc2cccc(Oc3ccccc3)c2)cc1	logP	7.05
CN1CCCC1	logP	0.92

Query block: Quick one: logP for `CCSC` ?
Result block: 1.54

Query block: Same lookup for `COc1ccc2cc([C@H](C)C(=O)OCC(=O)N(CCO)CCO)ccc2c1` , please.
Result block: 1.7

Query block: Same lookup for `CCCOC` , please.
Result block: 1.21

Query block: Same lookup for CCCCOC(NC(=O)c1ccccc1O)C(Cl)(Cl)Cl (centres undefined) , please.
Result block: 4.45

Query block: Same lookup for `CC1(C)CCC(C)(C)O1` , please.
Result block: 2.06

Query block: Same lookup for COCC(O)Cn1cc([N+](=O)[O-])nn1 (centres undefined) , please.
Result block: -0.36
